# assay.text: Hydrodynamic diameter and colloidal stability of aggregates by dynamic light scattering
# Type: physicochemical
# protocol.conditions: 5 μM in PBS from DMSO stock, 37 °C
Listed below: zeta potential values for each entry.
Express the result in mV but write the number alone.

compound | unit.of.measure | reported.value
CC1=C(/C=C/C(C)=C/C=C/C(C)=C/C=C/C=C(C)/C=C/C=C(C)/C=C/C2=C(C)C[C@@H](OC(=O)CCC(=O)O)CC2(C)C)C(C)(C)C[C@H](OC(=O)CCC(=O)O)C1 [Compound 7, Zeaxanthin bissuccinate] | mV | 20.1

Return reported zeta potential; argument: CC1=C[C@H](OC(=O)CCC(=O)O)CC(C)(C)[C@H]1/C=C/C(C)=C/C=C/C(C)=C/C=C/C=C(C)/C=C/C=C(C)/C=C/C1=C(C)C[C@@H](OC(=O)CCC(=O)O)CC1(C)C [Compound 10, Lutein bissuccinate]
20.3

Return reported zeta potential; argument: COc1ccc2[nH]cc(CCNC(=O)CNC(=O)CCC(=O)O[C@@H]3CC(C)=C(/C=C/C(C)=C/C=C/C(C)=C/C=C/C=C(C)/C=C/C=C(C)/C=C/C4=C(C)C[C@@H](O)CC4(C)C)C(C)(C)C3)c2c1 [Compound 13, Zeaxanthin-monomelatonin conjugate]
1.1
